Reported values of pEC50 for individual entries
tested.target: human MC3R (Homo sapiens)
Construct: expressed in transfected cells; host or cells: HEK-293 cells stably expressing the GScAMP22F split-luciferase cAMP sensor (parent reporter line from Promega); MC3R clone generated in-house, G418 selection
Sequence (P41968 whole entry): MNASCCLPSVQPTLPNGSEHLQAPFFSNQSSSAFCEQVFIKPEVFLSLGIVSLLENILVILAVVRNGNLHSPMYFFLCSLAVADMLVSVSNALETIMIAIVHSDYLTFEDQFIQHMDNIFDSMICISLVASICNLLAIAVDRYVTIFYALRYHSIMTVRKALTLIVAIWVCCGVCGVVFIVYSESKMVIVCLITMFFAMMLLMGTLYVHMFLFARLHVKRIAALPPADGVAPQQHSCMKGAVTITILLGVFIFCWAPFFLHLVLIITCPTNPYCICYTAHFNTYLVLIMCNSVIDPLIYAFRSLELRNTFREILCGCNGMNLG
test.method.notes: split-luciferase cAMP sensor assay, agonist mode (measurement window 1), hMC3R
Assay type: cell-based
measurement.parameters: agonist mode, hMC3R stable cell line; read-out: MC3R cAMP EC50
Positions of bridges follow the written chain, without caps; N, C: chain ends. Non-standard residues stand in square brackets, D forms with d. Residues, ends and D or L forms follow the SMILES beside them. dPhe(4-Br) = N[C@H](Cc1ccc(Br)cc1)C(=O)O; dPhe(4-I) = N[C@H](Cc1ccc(I)cc1)C(=O)O; NMeR = CN[C@@H](CCCNC(=N)N)C(=O)O; Cit = NC(=O)NCCC[C@H](N)C(=O)O; Nle = CCCC[C@H](N)C(=O)O
# pEC50 is unitless: minus log10 of the molar concentration; print number only

Answered examples (6):
compound="CC(=O)N[C@@H](CCCNC(=N)N)C(=O)N[C@H]1CSSC[C@@H](C(N)=O)NC(=O)[C@@H](Cc2c[nH]c3ccccc23)NC(=O)[C@H](CCCNC(=N)N)NC(=O)[C@@H](Cc2ccc(Br)cc2)NC(=O)[C@H](CCCNC(=N)N)N(C)C(=O)[C@@H](C)NC1=O [CTX-1248] (Ac-RC[dA][NMeR][dPhe(4-Br)]R[dW]C-NH2; disulfide 2-8 (inferred))" value_measured=8.55
compound="CCCC[C@H](NC(=O)[C@H](CCCNC(=N)N)NC(C)=O)C(=O)N[C@H]1CSSC[C@@H](C(N)=O)NC(=O)[C@@H](Cc2c[nH]c3ccccc23)NC(=O)[C@H](CCCNC(=N)N)NC(=O)[C@@H](Cc2ccc(I)cc2)NC(=O)[C@H](Cc2c[nH]cn2)NC1=O [CTX-1233] (Ac-R[Nle]CH[dPhe(4-I)]R[dW]C-NH2; disulfide 3-8 (inferred))" value_measured=8.39
compound="CCCC[C@H](NC(=O)[C@H](CCCNC(=N)N)NC(C)=O)C(=O)N[C@H]1CSSC[C@@H](C(N)=O)NC(=O)[C@H](Cc2c[nH]c3ccccc23)NC(=O)[C@H](CCCNC(=N)N)NC(=O)[C@@H](Cc2ccc(Br)cc2)NC(=O)[C@H](CCCNC(=N)N)NC1=O [CTX-1230] (Ac-R[Nle]CR[dPhe(4-Br)]RWC-NH2; disulfide 3-8)" value_measured=8.41
compound="CC(=O)N[C@@H](CCCNC(=N)N)C(=O)N[C@H]1CSSC[C@@H](C(N)=O)NC(=O)[C@H](Cc2c[nH]c3ccccc23)NC(=O)[C@H](CCCNC(=N)N)NC(=O)[C@@H](Cc2ccc(Br)cc2)NC(=O)[C@@H]2CCCN2C(=O)[C@@H](C)NC1=O [CTX-2204] (Ac-RC[dA]P[dPhe(4-Br)]RWC-NH2; disulfide 2-8 (inferred))" value_measured=7.96
compound="CC(=O)N[C@@H](CCCNC(=N)N)C(=O)N[C@H]1CSSC[C@@H](C(N)=O)NC(=O)[C@@H](Cc2c[nH]c3ccccc23)NC(=O)[C@H](CCCNC(=N)N)NC(=O)[C@@H](Cc2c[nH]c3ccccc23)NC(=O)[C@H](CCCNC(=N)N)NC(=O)[C@@H](C)NC1=O [CTX-1275] (Ac-RC[dA]R[dW]R[dW]C-NH2; disulfide 2-8 (inferred))" value_measured=6.61
compound="CC(=O)N[C@@H](CCCNC(=N)N)C(=O)N[C@H]1CSSC[C@@H](C(N)=O)NC(=O)[C@@H](Cc2c[nH]c3ccccc23)NC(=O)[C@H](CCCNC(=N)N)NC(=O)[C@@H](Cc2ccc(Br)cc2)NC(=O)[C@H](CCCNC(=N)N)NC(=O)[C@@H](C)NC1=O [CTX-1214] (Ac-RC[dA]R[dPhe(4-Br)]R[dW]C-NH2; disulfide 2-8 (inferred))" value_measured=8.39

Continue with the compound presented below.
Given the compound CC(=O)N[C@@H](CCCNC(=N)N)C(=O)N[C@H]1CSSC[C@@H](C(N)=O)NC(=O)[C@@H](Cc2c[nH]c3ccccc23)NC(=O)[C@H](CCCNC(N)=O)NC(=O)[C@@H](Cc2ccc(Br)cc2)NC(=O)[C@H](CCCNC(=N)N)NC(=O)[C@@H](C)NC1=O [CTX-1253] (Ac-RC[dA]R[dPhe(4-Br)][Cit][dW]C-NH2; disulfide 2-8 (inferred)) and test system human MC3R (Homo sapiens), the measured pEC50 is 8.40

Data provenance: patent US20240391954A1
